METHOD: qHTS assay to identify inhibitors of the type 1 interferon - major histocompatibility complex class I in skeletal muscle: Counter screen cell viability and HiBit confirmation (AID 1347412); further: potency means the concentration at half of the fitted maximal effect; nearly all actives have a fitted effect of over 60% in size
EXPERIMENTAL CONTEXT: iHSKM muscle cells + IFN-b, HiBiT or CellTiter-Glo, 24 h; HiBiT
Results filed as inconclusive are left out. Active and inactive are the calls of the source. The call rests on the fitted dose curve; in most records, active means well fitted inhibition curve with a large enough effect; inconclusive means small, poorly fitted or top-dose-only effect; inactive means no such curve, though single readings can be large or run the other way.
OBSERVED PROPERTY: Potency

CC(C)c1c(-c2ccccc2)nc2c(C#N)c[nH]n2c1=O; 3.94 µM (active)
Fc1cccc(-n2cnc3c(NCc4nc5c(F)c(F)ccc5[nH]4)nc(N4CCOCC4)nc32)c1; 0.442 µM (active)
CC[C@@]1(O)C(=O)OCc2c1cc1n(c2=O)Cc2c-1nc1cc(F)c(C)c3c1c2[C@@H](N)CC3; 0.313 µM (active)

// recorded Potency for CCS(=O)(=O)Nc1ccc(Oc2ccc(F)cc2F)c(-c2cn(C)c(=O)c3[nH]ccc23)c1 : 0.0557 µM (active)

The recorded Potency for CC1(C)OC2=C(C(=O)c3ccccc3C2=O)[C@H](NCc2ccccc2)[C@@H]1O is 9.91 µM (active)

Data point: CC(=O)NCC(=O)N1[C@@H]2CC[C@H]1c1ccc(Nc3ncc(C(F)(F)F)c(NC4CCC4)n3)cc12 ; Potency = 3.13 µM (active)

Form field Potency, entry O=c1cc(N2CCOCC2)oc2c(-c3ccc4c(c3)OCCO4)csc12 : 14 µM (active)

Looking up Cc1ncsc1-c1ccc([C@H](C)NC(=O)[C@@H]2C[C@@H](O)CN2C(=O)[C@@H](NC(=O)COCCCOCCNC(=O)C[C@@H]2N=C(c3ccc(Cl)cc3)c3c(sc(C)c3C)-n3c(C)nnc32)C(C)(C)C)cc1 , I see its Potency listed as 0.394 µM (active)

Reported Potency of Cc1c[nH]c2nc(Nc3ccc(N4CCN(C)CC4)c(F)c3)nc(-c3cccc(CC#N)c3)c12 : 1.76 µM (active)

The compound listed as C/C=C1\NC(=O)[C@H]2CSSCCC=C[C@H](CC(=O)N[C@H](C(C)C)C(=O)N2)OC(=O)[C@H](C(C)C)NC1=O shows Potency equal to 0.0004 µM (active)

###

ASSAY SYSTEM: Calcium and integrin-binding protein 1 (Homo sapiens) (UniProt Q99828)
Sequence (Q99828 whole entry, looked up): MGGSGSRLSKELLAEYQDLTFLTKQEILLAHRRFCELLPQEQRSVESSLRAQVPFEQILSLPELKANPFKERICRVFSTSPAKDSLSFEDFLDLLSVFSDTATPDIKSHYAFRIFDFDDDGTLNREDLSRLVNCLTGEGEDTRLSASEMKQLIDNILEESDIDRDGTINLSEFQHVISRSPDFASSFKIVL
METHOD: Primary qHTS for Identification of Calcium Integrin Binding Protein 1 (CIB1) Competitor (AID 1508620);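 further: GST tagged CIB1 binding a fluorescein labelled alphaIIb integrin peptide tracer; top concentration of the series differs between compounds; on the % scale 0 is the no-effect control and ±100 the full control effect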
EXPERIMENTAL CONTEXT: CIB1-GST / FITC-alphaIIb peptide fluorescence polarization; series mostly up to 114 µM
Results filed as inconclusive are left out. Calls of active or inactive are those of the source. Calls follow the shape of the dose curve; as a rule, active = well fitted inhibition curve with a large enough effect; inconclusive = small, poorly fitted or top-dose-only effect; inactive = flat fitted curve, though single readings scatter.
OBSERVED PROPERTY: outcome

Examples with their reported outcome follow.
O=S(=O)(c1cccc(F)c1)N1CCN(S(=O)(=O)c2ccc3c(c2)OCCO3)CC1; inactive
Cn1c2cc(Br)sc2c2cnn(Cc3ccc(F)cc3)c(=O)c21; inactive
COc1ccc(C2Nc3ccccc3C(=O)N2Cc2cccc(-c3ccccc3)c2)cc1COc1ccc(NC(C)=O)cc1 (configuration not stated); inactive
COc1cc(-c2ccc3ncnc(N(C)Cc4csc(C)n4)c3c2)cc(OC)c1OC; inactive
O=C(Nc1nnc(-c2ccncc2)s1)Nc1ccc(Cl)cc1F; inactive
CCCCN(C)C(=O)Cn1nc(-c2ccncc2)ccc1=O; inactive
CN1C(=O)CCc2cc(S(=O)(=O)Nc3ccc(Cl)c(Cl)c3)ccc21; inactive
CCCn1c(C)nc2c(NCCN(CC)CC)nc(C)nc21; inactive

// outcome value for CC(=O)c1ccc(N2CCN(S(=O)(=O)c3ccc4c(c3)C(Cl)(Cl)C(=O)N4)CC2)cc1 : inactive

Reported outcome of CC(=O)Nc1cccc([S+](=O)([O-])N2CCCN([S+](=O)([O-])c3cccc(NC(C)=O)c3)CC2)c1 : inactive

Memo: O=C1c2ccccc2NC(c2ccc(-c3cccc(Cl)c3)o2)N1O (configuration not stated) , reported outcome: inactive

Sample CC(=O)Nc1sc2c(c1-c1ccc(N(C)C)cc1)CCNC2 ; outcome observed: inactive

Value of measured outcome for the entry O=C1CC(c2ccccc2)Cc2[nH]c(=O)c(-c3nc(-c4ccc(F)cc4)cs3)cc21 (configuration not stated) : inactive

Sample Oc1ccc(COc2cccc3ccccc23)c2cccnc12 ; outcome observed: inactive

For record S=C(Nc1cc(Cl)ccn1)N1CCN(c2cccc(Cl)c2Cl)CC1 the listed outcome is inactive

###

METHOD: Vero-766 cells viability qHTS against the NCATS CANVASS Library: Counterscreen for Zika virus inhibition assay (AID 1347394); further: on the % scale 0 is the no-effect control and ±100 the full control effect; nearly all actives have a fitted effect of over 60% in size
EXPERIMENTAL CONTEXT: Vero 766 viability, CellTiter-Glo luminescence, 72 h; series mostly up to 46.1 µM
Results filed as inconclusive are left out. The source made the active and inactive calls. Calls follow the shape of the dose curve; as a rule, active = well fitted cell-killing curve with a large enough effect; inconclusive = small, poorly fitted or top-dose-only effect; inactive = flat fitted curve, though single readings scatter.
// classify into 1 = active, -1 = inactive

Hi, do you know how O=C1CC(c2ccc(O)cc2)Oc2ccccc21 (centres undefined) came out in this test? -1

Just curious, what result did CC1=C(C)C(=O)OC(C(C)C2(O)CCC3C4C5OC5C5(O)CC=CC(=O)C5(C)C4CCC32C)C1 (centres undefined) get here? -1

###

# activation annotations
ASSAY SYSTEM: Thyrotropin-releasing hormone receptor (Homo sapiens)
METHOD: qHTS for Small Molecule Agonists and Allosteric Enhancers of Human TRH Receptor: Validation Screen for Agonists (AID 493127);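 further: intracellular calcium rise by fluo-8 fluorescence before TRH EC20 addition; 0% is about no effect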
EXPERIMENTAL CONTEXT: TRH receptor agonist cell assay; at 2 µM; stronger effect = higher value
Only the number, expressed in %, is required.

CC(C)CN(C)c1nc(N)c(C(=O)N=C(N)N)nc1Cl; 0.812
NCCNC(=O)c1ccc(Cl)cc1; 0.625
CN(CCOc1ccc(C[C@H](Nc2ccccc2C(=O)c2ccccc2)C(=O)O)cc1)c1ccccn1; 2.06
CSc1nc(N)c2ncn([C@@H]3O[C@H](COP(=O)(O)OP(=O)(O)O)[C@H](O)[C@H]3O)c2n1; 17.3
CCCCCCCCCCCCCCC/C=C/[C@@H](O)[C@H](NC(=O)CCCCCCCCCCCCC)OC (tested in a mixture with another compound); 1.19

Reading of activation for COC(=O)c1c(-c2cc(OC)c(OC)c(OC)c2)c2ccc(OCc3ccccn3)cc2c(=O)n1-c1ccc(N)cc1 with Thyrotropin-releasing hormone receptor (Homo sapiens): -4

Thyrotropin-releasing hormone receptor (Homo sapiens) activation of OC[C@H]1O[C@@H](n2cnc3c(Nc4ccccc4)ncnc32)[C@H](O)[C@H]1O is 0.188

###

METHOD: qHTS for differential inhibitors of proliferation of Plasmodium falciparum line HB3 (AID 1886);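 further: parasites grown with compound for 72 h before SYBR Green readout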
EXPERIMENTAL CONTEXT: Plasmodium falciparum HB3 proliferation inhibition; series mostly up to 28.7 µM
Inconclusive results are not listed. The source made the active and inactive calls. Calls follow the shape of the dose curve; as a rule, active = well fitted curve in the direction sought with a large enough effect; inconclusive = small, poorly fitted or top-dose-only effect, or another doubt; inactive = no such curve, though single readings can be large or run the other way.
Pick from TRUE = active, FALSE = inactive when you respond.

A selection of reference data follows.
Cc1ccccc1N1CCN(S(=O)(=O)C[C@]23CCC(CC2NC(=O)[C@@H](N)CCS(C)(=O)=O)C3(C)C)CC1 (stereo partly drawn); FALSE
CSc1nc(N)c2ncn([C@@H]3O[C@H](COP(=O)(O)OP(=O)(O)O)[C@H](O)[C@H]3O)c2n1; FALSE
Cc1cn([C@H]2C[C@@H](N=[N+]=[N-])[C@@H](CO)O2)c(=O)[nH]c1=O; FALSE
CC(N)=NCCCC(N)C(=O)O (stereo not drawn); FALSE
Nc1ncnc2c1ncn2[C@@H]1O[C@H](C(=O)NC2CC2)[C@H](O)[C@H]1O; FALSE

Recorded test call requested for CCn1c(=O)c2[nH]c(-c3ccccc3)nc2n(CC)c1=O FALSE

Hi team, can someone confirm the assay call for OC[C@H]1O[C@@H](n2cnc3c(NC4CCCC4)ncnc32)[C@H](O)[C@H]1O ? FALSE

// return assay outcome for N=C(N)SCCc1cccc(CCSC(=N)N)c1 TRUE

Per the records of this test, what outcome belongs to CC(C)CN(C)c1nc(N)c(C(=O)N=C(N)N)nc1Cl ? TRUE

Hi, do you know how CCCNC[C@H](O)COc1ccccc1C(=O)CCc1ccccc1 came out in this test? TRUE

Outcome logged for COC(=O)c1c(-c2cc(OC)c(OC)c(OC)c2)c2ccc(OCc3ccccn3)cc2c(=O)n1-c1ccc(N)cc1 in this assay: TRUE

I would be grateful if you could indicate the recorded call for CN1C(=O)CCC1c1cccnc1 (stereo not drawn) . FALSE

What outcome does the record of this test show for C[C@H](Cc1ccccc1)Nc1ncnc2c1ncn2[C@@H]1O[C@H](CO)[C@H](O)[C@H]1O ? FALSE

Name the outcome recorded for CC(=O)O[C@H]1C[C@@H]2CCC3C(CC[C@@]4(C)[C@H]3C[C@H]([N+]3(C)CCCCC3)[C@@H]4OC(C)=O)[C@@]2(C)C[C@@H]1[N+]1(C)CCCCC1 (stereo partly drawn) in the assay. FALSE

What outcome does the record of this test show for NCCC(=O)NCCc1cnc[nH]1 ? FALSE

Returns: the outcome recorded for NC(=O)C1=CN(C2OC(COP(=O)(O)OP(=O)(O)OC[C@H]3O[C@@H](n4cnc5c(N)ncnc54)[C@H](OP(=O)(O)O)[C@H]3O)C(O)C2O)C=CC1 (stereo partly drawn) in this assay. FALSE

What outcome does the record of this test show for CC(O)[C@@H](O)[C@H]1CNc2nc(N)[nH]c(=O)c2N1 (stereo partly drawn) ? FALSE

Kindly provide the recorded test outcome for the following molecule: CCCCC#Cc1nc(N)c2ncn([C@@H]3O[C@H](C(=O)NCC)[C@@H](O)[C@H]3O)c2n1 TRUE

Entry OC[C@H]1O[C@@H](n2cnc3c(Nc4ccccc4)ncnc32)[C@H](O)[C@H]1O : call = ? FALSE

# fetch the recorded call for CCCCCCCCCCCCCCC/C=C/[C@@H](O)[C@H](NC(=O)CCCCCCCCCCCCC)OC (tested in a mixture with another compound) here FALSE

Identify the outcome logged in this assay for the molecule shown: CN=C(N)NCCCC(N)C(=O)O (stereo not drawn) FALSE

What did this assay record as the result for CN1CCc2cc(Cl)c(O)cc2C(c2ccccc2)C1 (stereo not drawn) ? TRUE

Look up the recorded call for O=C(Cc1ccc(Cl)c(Cl)c1)OCCN1CCCC1 in this test. FALSE

Given NC(=NCCC[C@H](N)C(=O)O)NO , state the outcome it received in this test. FALSE

Data provenance: PubChem BioAssay (NCATS)
